molecular target: mouse anoctamin 1 (mANO1) (Mus musculus, UniProt Q8BHY3); assay: whole-cell patch clamp in HEK293T cells, dose-response at −[…] mV
Sequence (Q8BHY3 whole entry): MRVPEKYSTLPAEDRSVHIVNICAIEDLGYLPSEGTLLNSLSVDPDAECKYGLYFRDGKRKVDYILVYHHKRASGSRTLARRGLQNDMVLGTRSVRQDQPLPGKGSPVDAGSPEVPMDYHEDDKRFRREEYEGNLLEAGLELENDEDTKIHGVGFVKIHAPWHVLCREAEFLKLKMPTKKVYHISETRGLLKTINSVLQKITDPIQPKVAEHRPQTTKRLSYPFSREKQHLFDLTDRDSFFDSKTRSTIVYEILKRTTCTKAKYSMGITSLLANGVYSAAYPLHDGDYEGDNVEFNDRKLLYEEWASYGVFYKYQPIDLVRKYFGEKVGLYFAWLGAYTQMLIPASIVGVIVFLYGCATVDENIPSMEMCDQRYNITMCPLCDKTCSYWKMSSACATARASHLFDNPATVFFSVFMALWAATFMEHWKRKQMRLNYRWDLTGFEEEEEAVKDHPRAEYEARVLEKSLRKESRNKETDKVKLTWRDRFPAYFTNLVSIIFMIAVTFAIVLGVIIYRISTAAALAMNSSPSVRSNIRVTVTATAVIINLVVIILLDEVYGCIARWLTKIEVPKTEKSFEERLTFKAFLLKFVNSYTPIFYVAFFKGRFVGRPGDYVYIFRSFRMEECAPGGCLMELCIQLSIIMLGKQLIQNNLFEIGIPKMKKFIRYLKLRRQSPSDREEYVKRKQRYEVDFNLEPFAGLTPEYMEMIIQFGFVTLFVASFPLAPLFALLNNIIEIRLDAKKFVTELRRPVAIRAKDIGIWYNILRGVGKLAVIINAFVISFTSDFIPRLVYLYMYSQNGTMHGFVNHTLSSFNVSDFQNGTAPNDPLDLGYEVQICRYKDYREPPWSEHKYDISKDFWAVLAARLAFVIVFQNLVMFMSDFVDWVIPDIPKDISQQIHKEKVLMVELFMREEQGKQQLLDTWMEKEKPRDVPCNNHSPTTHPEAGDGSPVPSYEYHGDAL
Known pIC50 of a selection of compounds
Please report pIC50 as the negative decimal logarithm of the molar concentration, giving only the number.

{"compound": "CC(C)[C@@H]1CC[C@@H](C)C[C@H]1O", "measurementType": "pIC50", "numericValue": 3.36}

Now consider a different compound.
QUERY: Value lookup for pIC50; key = CC(C)C1CCC(O)CC1 (centres unmarked)
RESULT: 2.96

Hello, the source for this data is paper PMC5320485, in case you need it.
